assay: Urinary excretion of CR665 after single IV infusion in human subjects; format: in vivo; conditions: male, human, urine and plasma; males, 0.09 mg/kg, 5-minute IV infusion, geometric mean; read-out: CLR 0-24 h
Where a name gives a salt, the structure may show the parent alone. Non-standard residues stand in square brackets, D forms with d. Residues, ends and D or L forms follow the SMILES beside them. *: point of attachment. NH(4-picolyl) = c1cc(CN*)ccn1; dNle = CCCC[C@@H](N)C(=O)O

compound: CCCC[C@@H](NC(=O)[C@@H](Cc1ccccc1)NC(=O)[C@H](N)Cc1ccccc1)C(=O)N[C@H](CCCNC(=N)N)C(=O)NCc1ccncc1 [CR665, acetate salt] (H-[dF][dF][dNle][dR]-{NH(4-picolyl)})
unit_info: mL/min
CL renal: 20.5

----------
assay: Plasma pharmacokinetics of CR665 after single IV infusion in human subjects; conditions: male, human, plasma, iv, 0.36 mg/kg, Cmax, males, 1 hour IV infusion, geometric mean
Where a name gives a salt, the structure may show the parent alone. Non-standard residues stand in square brackets, D forms with d. Residues, ends and D or L forms follow the SMILES beside them. *: point of attachment. NH(4-picolyl) = c1cc(CN*)ccn1; dNle = CCCC[C@@H](N)C(=O)O

compound: CCCC[C@@H](NC(=O)[C@@H](Cc1ccccc1)NC(=O)[C@H](N)Cc1ccccc1)C(=O)N[C@H](CCCNC(=N)N)C(=O)NCc1ccncc1 [CR665, acetate salt] (H-[dF][dF][dNle][dR]-{NH(4-picolyl)})
unit_info: ng/mL
Cmax: 779

----------
assay: Plasma pharmacokinetics of CR665 after single IV infusion in human subjects; conditions: male, human, plasma, iv, 0.12 mg/kg, AUC0-∞, males, 1 hour IV infusion, geometric mean
Counter-ions that a name gives are not always drawn. Non-standard residues stand in square brackets, D forms with d. Residues, ends and D or L forms follow the SMILES beside them. *: point of attachment. NH(4-picolyl) = c1cc(CN*)ccn1; dNle = CCCC[C@@H](N)C(=O)O

compound: CCCC[C@@H](NC(=O)[C@@H](Cc1ccccc1)NC(=O)[C@H](N)Cc1ccccc1)C(=O)N[C@H](CCCNC(=N)N)C(=O)NCc1ccncc1 [CR665, acetate salt] (H-[dF][dF][dNle][dR]-{NH(4-picolyl)})
AUC(0-inf), ng·h/mL: 270

----------
assay: Plasma pharmacokinetics of CR665 after single IV infusion in human subjects; details: male, human, plasma, iv, 0.06 mg/kg, tmax, males, 1 hour IV infusion, median
Counter-ions that a name gives are not always drawn. Non-standard residues stand in square brackets, D forms with d. Residues, ends and D or L forms follow the SMILES beside them. *: point of attachment. NH(4-picolyl) = c1cc(CN*)ccn1; dNle = CCCC[C@@H](N)C(=O)O

compound: CCCC[C@@H](NC(=O)[C@@H](Cc1ccccc1)NC(=O)[C@H](N)Cc1ccccc1)C(=O)N[C@H](CCCNC(=N)N)C(=O)NCc1ccncc1 [CR665, acetate salt] (H-[dF][dF][dNle][dR]-{NH(4-picolyl)})
Tmax / min: 52.5

----------
experiment: Plasma pharmacokinetics of CR665 after single IV infusion in human subjects; details: male, human, plasma, iv, 0.42 mg/kg, Vss, males, 0.42 mg/kg, 1 hour IV infusion, geometric mean
Counter-ions that a name gives are not always drawn. Non-standard residues stand in square brackets, D forms with d. Residues, ends and D or L forms follow the SMILES beside them. *: point of attachment. NH(4-picolyl) = c1cc(CN*)ccn1; dNle = CCCC[C@@H](N)C(=O)O
readout_kind: Vd (L)

compound: CCCC[C@@H](NC(=O)[C@@H](Cc1ccccc1)NC(=O)[C@H](N)Cc1ccccc1)C(=O)N[C@H](CCCNC(=N)N)C(=O)NCc1ccncc1 [CR665, acetate salt] (H-[dF][dF][dNle][dR]-{NH(4-picolyl)})
quantitative_result: 18.7

----------
test: Plasma pharmacokinetics of CR665 after single IV infusion in human subjects; settings: male, human, plasma, iv, 0.24 mg/kg, t1/2, males, 1 hour IV infusion, geometric mean
Structures can show the parent of a compound that is named as a salt. Non-standard residues stand in square brackets, D forms with d. Residues, ends and D or L forms follow the SMILES beside them. *: point of attachment. NH(4-picolyl) = c1cc(CN*)ccn1; dNle = CCCC[C@@H](N)C(=O)O

molecule: CCCC[C@@H](NC(=O)[C@@H](Cc1ccccc1)NC(=O)[C@H](N)Cc1ccccc1)C(=O)N[C@H](CCCNC(=N)N)C(=O)NCc1ccncc1 [CR665, acetate salt] (H-[dF][dF][dNle][dR]-{NH(4-picolyl)})
half-life (h): 1.37

----------
experiment: Urinary excretion of CR665 after single IV infusion in human subjects; format: in vivo; conditions: male, human, urine, iv, 0.06 mg/kg, males, 0.06 mg/kg, 5-minute IV infusion, urine, geometric mean; read-out: fe0-24 h
Where a name gives a salt, the structure may show the parent alone. Non-standard residues stand in square brackets, D forms with d. Residues, ends and D or L forms follow the SMILES beside them. *: point of attachment. NH(4-picolyl) = c1cc(CN*)ccn1; dNle = CCCC[C@@H](N)C(=O)O

compound: CCCC[C@@H](NC(=O)[C@@H](Cc1ccccc1)NC(=O)[C@H](N)Cc1ccccc1)C(=O)N[C@H](CCCNC(=N)N)C(=O)NCc1ccncc1 [CR665, acetate salt] (H-[dF][dF][dNle][dR]-{NH(4-picolyl)})
dose excreted [%]: 3.33

----------
assay: Urinary excretion of CR665 after single IV infusion in human subjects; type: in vivo; details: male, human, urine, iv, 0.03 mg/kg, males, 0.03 mg/kg, 5-minute IV infusion, urine, geometric mean; read-out: fe0-24 h
Structures can show the parent of a compound that is named as a salt. Non-standard residues stand in square brackets, D forms with d. Residues, ends and D or L forms follow the SMILES beside them. *: point of attachment. NH(4-picolyl) = c1cc(CN*)ccn1; dNle = CCCC[C@@H](N)C(=O)O

molecule: CCCC[C@@H](NC(=O)[C@@H](Cc1ccccc1)NC(=O)[C@H](N)Cc1ccccc1)C(=O)N[C@H](CCCNC(=N)N)C(=O)NCc1ccncc1 [CR665, acetate salt] (H-[dF][dF][dNle][dR]-{NH(4-picolyl)})
dose excreted / %: 3.6

----------
assay: Plasma pharmacokinetics of CR665 after single IV infusion in human subjects; conditions: male, human, plasma, iv, 0.24 mg/kg, Vss, males, 0.24 mg/kg, 1 hour IV infusion, geometric mean
Where a name gives a salt, the structure may show the parent alone. Non-standard residues stand in square brackets, D forms with d. Residues, ends and D or L forms follow the SMILES beside them. *: point of attachment. NH(4-picolyl) = c1cc(CN*)ccn1; dNle = CCCC[C@@H](N)C(=O)O

compound: CCCC[C@@H](NC(=O)[C@@H](Cc1ccccc1)NC(=O)[C@H](N)Cc1ccccc1)C(=O)N[C@H](CCCNC(=N)N)C(=O)NCc1ccncc1 [CR665, acetate salt] (H-[dF][dF][dNle][dR]-{NH(4-picolyl)})
Vd / L: 23.2

----------
assay: Plasma pharmacokinetics of CR665 after single IV infusion in human subjects; settings: female, human, plasma, iv, 0.06 mg/kg, AUC0-t, females, 5-minute IV infusion, geometric mean
Where a name gives a salt, the structure may show the parent alone. Non-standard residues stand in square brackets, D forms with d. Residues, ends and D or L forms follow the SMILES beside them. *: point of attachment. NH(4-picolyl) = c1cc(CN*)ccn1; dNle = CCCC[C@@H](N)C(=O)O

compound: CCCC[C@@H](NC(=O)[C@@H](Cc1ccccc1)NC(=O)[C@H](N)Cc1ccccc1)C(=O)N[C@H](CCCNC(=N)N)C(=O)NCc1ccncc1 [CR665, acetate salt] (H-[dF][dF][dNle][dR]-{NH(4-picolyl)})
unit_info: ng·h/mL
AUC(0-t): 120

----------
experiment: Plasma pharmacokinetics of CR665 after single IV infusion in human subjects; details: male, human, plasma, iv, 0.24 mg/kg, tmax, males, 1 hour IV infusion, median
Structures can show the parent of a compound that is named as a salt. Non-standard residues stand in square brackets, D forms with d. Residues, ends and D or L forms follow the SMILES beside them. *: point of attachment. NH(4-picolyl) = c1cc(CN*)ccn1; dNle = CCCC[C@@H](N)C(=O)O

compound: CCCC[C@@H](NC(=O)[C@@H](Cc1ccccc1)NC(=O)[C@H](N)Cc1ccccc1)C(=O)N[C@H](CCCNC(=N)N)C(=O)NCc1ccncc1 [CR665, acetate salt] (H-[dF][dF][dNle][dR]-{NH(4-picolyl)})
Tmax (h): 1

----------
experiment: Plasma pharmacokinetics of CR665 after single IV infusion in human subjects; conditions: female, human, plasma, iv, 0.24 mg/kg, Vss, females, 0.24 mg/kg, 1-hour IV infusion, geometric mean
Where a name gives a salt, the structure may show the parent alone. Non-standard residues stand in square brackets, D forms with d. Residues, ends and D or L forms follow the SMILES beside them. *: point of attachment. NH(4-picolyl) = c1cc(CN*)ccn1; dNle = CCCC[C@@H](N)C(=O)O
readout_kind: Vd (L)

compound: CCCC[C@@H](NC(=O)[C@@H](Cc1ccccc1)NC(=O)[C@H](N)Cc1ccccc1)C(=O)N[C@H](CCCNC(=N)N)C(=O)NCc1ccncc1 [CR665, acetate salt] (H-[dF][dF][dNle][dR]-{NH(4-picolyl)})
quantitative_result: 17.2
